Listing of recorded pIC50 by entry.
species: Mus musculus; assay: Inhibitory activity against production of nitric oxide induced by interferon gamma in mouse macrophages; assay type: functional, organism-based
// returns pIC50 (minus log10 of molar concentration), number only

• CCOC(=O)[C@]12CCC(C)(C)CC1C1C(=O)C=C3[C@@]4(C)C=C(C(=O)O)C(=O)C(C)(C)[C@@H]4CC[C@@]3(C)[C@]1(C)CC2 (stereo partly specified) = 8.10

Fill blank: measured pIC50 of the compound CCCCCCCCOC(=O)[C@]12CCC(C)(C)CC1C1C(=O)C=C3[C@@]4(C)C=C(C#N)C(=O)C(C)(C)[C@@H]4CC[C@@]3(C)[C@]1(C)CC2 (stereo partly specified) is ____.
7.22

Fill blank: measured pIC50 of the compound CC1(C)CC[C@]2(C(=O)O)CC[C@]3(C)[C@H](C(=O)C=C4[C@@]5(C)C=C(C#N)C(=O)C(C)(C)[C@@H]5CC[C@]43C)[C@@H]2C1 is ____.
9.36

Fill blank: measured pIC50 of the compound CC1(C)CC[C@]2(C(=O)Nc3ccccc3)CC[C@]3(C)C(C(=O)C=C4[C@@]5(C)C=C(C#N)C(=O)C(C)(C)[C@@H]5CC[C@]43C)C2C1 (stereo partly specified) is ____.
7.54

Fill blank: measured pIC50 of the compound CN(C)C(=O)[C@]12CCC(C)(C)CC1C1C(=O)C=C3[C@@]4(C)C=C(C#N)C(=O)C(C)(C)[C@@H]4CC[C@@]3(C)[C@]1(C)CC2 (stereo partly specified) is ____.
8.81

Fill blank: measured pIC50 of the compound CC(=O)OC[C@H]1O[C@@H](OC(=O)[C@]23CCC(C)(C)CC2C2C(=O)C=C4[C@@]5(C)C=C(C#N)C(=O)C(C)(C)[C@@H]5CC[C@@]4(C)[C@]2(C)CC3)[C@H](OC(C)=O)[C@H](OC(C)=O)[C@@H]1OC(C)=O (stereo partly specified) is ____.
10.15
